TARGET UNDER TEST: UniProtKB P36888
Sequence (P36888 27-993): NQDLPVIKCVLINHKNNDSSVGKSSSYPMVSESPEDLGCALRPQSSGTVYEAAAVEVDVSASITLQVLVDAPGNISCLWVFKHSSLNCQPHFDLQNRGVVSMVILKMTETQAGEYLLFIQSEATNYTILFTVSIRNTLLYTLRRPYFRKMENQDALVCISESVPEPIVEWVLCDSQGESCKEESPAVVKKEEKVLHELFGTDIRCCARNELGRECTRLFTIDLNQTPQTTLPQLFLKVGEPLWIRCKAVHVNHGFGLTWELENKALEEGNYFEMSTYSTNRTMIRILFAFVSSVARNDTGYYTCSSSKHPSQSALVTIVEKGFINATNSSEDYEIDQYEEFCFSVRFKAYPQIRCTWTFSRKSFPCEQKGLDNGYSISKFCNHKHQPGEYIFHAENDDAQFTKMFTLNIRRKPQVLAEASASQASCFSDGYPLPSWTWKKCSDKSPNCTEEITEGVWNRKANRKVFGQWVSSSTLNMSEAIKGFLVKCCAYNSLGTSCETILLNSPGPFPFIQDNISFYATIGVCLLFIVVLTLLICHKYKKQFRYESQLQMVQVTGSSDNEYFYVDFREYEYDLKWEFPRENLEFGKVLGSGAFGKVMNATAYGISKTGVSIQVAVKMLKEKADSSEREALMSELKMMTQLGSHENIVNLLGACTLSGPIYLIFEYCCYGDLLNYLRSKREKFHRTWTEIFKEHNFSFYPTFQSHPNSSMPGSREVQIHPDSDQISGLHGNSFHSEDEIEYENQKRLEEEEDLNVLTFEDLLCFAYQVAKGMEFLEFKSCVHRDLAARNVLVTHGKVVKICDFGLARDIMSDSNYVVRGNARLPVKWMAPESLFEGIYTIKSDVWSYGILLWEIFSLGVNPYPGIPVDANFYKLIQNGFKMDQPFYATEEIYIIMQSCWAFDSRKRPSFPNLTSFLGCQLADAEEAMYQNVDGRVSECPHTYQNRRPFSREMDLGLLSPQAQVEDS
READOUT NAME: IC50 (µM)

compound="COc1cc2nccc(Oc3ccc(NC(=O)NC4CC4)c(Cl)c3)c2cc1C(N)=O [Lenvatinib, Lenvatinib mesilate]" units_of_measure=µM value=4.1

* * *

TARGET UNDER TEST: PDGFRα (Homo sapiens, UniProt P16234)
pIC50: −log10 of the molar value.
READOUT NAME: pIC50

molecule="COc1cc2nccc(Oc3ccc(NC(=O)NC4CC4)c(Cl)c3)c2cc1C(N)=O [Lenvatinib, Lenvatinib mesilate]" value=7.54

* * *

TARGET UNDER TEST: AKT1 (Homo sapiens)
pIC50: −log10 of the molar value.
READOUT NAME: pIC50

compound="COc1cc2nccc(Oc3ccc(NC(=O)NC4CC4)c(Cl)c3)c2cc1C(N)=O [Lenvatinib, Lenvatinib mesilate]" value="< 5.00"

* * *

TARGET UNDER TEST: FRK (Homo sapiens)
Sequence (P42685 whole entry): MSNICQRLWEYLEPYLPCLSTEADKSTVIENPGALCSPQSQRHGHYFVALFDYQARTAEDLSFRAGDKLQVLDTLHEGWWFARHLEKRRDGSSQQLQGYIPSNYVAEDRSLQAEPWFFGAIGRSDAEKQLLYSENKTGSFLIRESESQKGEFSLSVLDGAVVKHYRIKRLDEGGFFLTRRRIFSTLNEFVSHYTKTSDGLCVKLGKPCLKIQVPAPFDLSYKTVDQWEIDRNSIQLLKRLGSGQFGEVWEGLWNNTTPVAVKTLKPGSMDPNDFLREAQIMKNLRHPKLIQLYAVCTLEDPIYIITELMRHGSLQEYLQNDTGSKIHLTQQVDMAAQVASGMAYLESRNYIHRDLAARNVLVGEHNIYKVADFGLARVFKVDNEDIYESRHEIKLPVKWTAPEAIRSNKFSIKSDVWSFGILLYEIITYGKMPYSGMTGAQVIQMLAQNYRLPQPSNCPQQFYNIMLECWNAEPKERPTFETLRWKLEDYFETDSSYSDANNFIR
READOUT NAME: IC50 (nM)

molecule="COc1cc2nccc(Oc3ccc(NC(=O)NC4CC4)c(Cl)c3)c2cc1C(N)=O [Lenvatinib, Lenvatinib mesilate]" target_under_test="FRK (Homo sapiens)" units_of_measure=nM value=160

* * *

Test system: TT cells
PROTOCOL DESCRIPTION: Antiproliferation assay (WST-8)
Assay type: cell-based
MEASUREMENT SETUP: Homo sapiens, 240 h; TT (MTC), antiproliferative, 10 days; read-out: IC50
pIC50: −log10 of the molar value.
READOUT NAME: pIC50

molecule="COc1cc2nccc(Oc3ccc(NC(=O)NC4CC4)c(Cl)c3)c2cc1C(N)=O [Lenvatinib, Lenvatinib mesilate]" value=7.11

* * *

TARGET UNDER TEST: UniProtKB P54753
Sequence (P54753 34-998): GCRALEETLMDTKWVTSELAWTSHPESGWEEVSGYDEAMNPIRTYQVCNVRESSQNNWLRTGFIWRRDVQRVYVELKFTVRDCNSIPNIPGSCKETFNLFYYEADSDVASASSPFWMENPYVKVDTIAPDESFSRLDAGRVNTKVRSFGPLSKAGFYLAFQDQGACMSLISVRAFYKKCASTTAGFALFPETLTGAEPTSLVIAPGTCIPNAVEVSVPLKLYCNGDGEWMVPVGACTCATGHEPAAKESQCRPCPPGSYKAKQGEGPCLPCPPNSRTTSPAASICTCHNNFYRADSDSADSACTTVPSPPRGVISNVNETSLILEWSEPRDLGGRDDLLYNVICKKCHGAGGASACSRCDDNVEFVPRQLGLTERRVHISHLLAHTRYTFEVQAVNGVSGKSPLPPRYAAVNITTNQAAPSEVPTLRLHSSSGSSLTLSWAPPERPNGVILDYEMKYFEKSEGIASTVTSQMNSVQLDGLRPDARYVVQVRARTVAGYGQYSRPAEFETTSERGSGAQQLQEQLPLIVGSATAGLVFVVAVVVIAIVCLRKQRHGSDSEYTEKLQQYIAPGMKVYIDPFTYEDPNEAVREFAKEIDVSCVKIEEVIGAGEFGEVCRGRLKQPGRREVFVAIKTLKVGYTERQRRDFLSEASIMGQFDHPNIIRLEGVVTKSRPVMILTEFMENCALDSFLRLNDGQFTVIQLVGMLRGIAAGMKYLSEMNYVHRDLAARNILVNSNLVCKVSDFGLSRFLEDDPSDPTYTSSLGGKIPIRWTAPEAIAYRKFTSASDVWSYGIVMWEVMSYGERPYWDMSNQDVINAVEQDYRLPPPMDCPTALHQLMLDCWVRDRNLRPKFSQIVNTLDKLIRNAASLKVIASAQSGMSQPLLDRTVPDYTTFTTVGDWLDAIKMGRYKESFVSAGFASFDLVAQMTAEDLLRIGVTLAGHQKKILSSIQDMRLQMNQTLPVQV
READOUT NAME: IC50

compound="COc1cc2nccc(Oc3ccc(NC(=O)NC4CC4)c(Cl)c3)c2cc1C(N)=O [Lenvatinib, Lenvatinib mesilate]" value="> 10 µM"

* * *

TARGET UNDER TEST: p70S6K (Homo sapiens, UniProt P23443)
READOUT NAME: IC50

compound="COc1cc2nccc(Oc3ccc(NC(=O)NC4CC4)c(Cl)c3)c2cc1C(N)=O [Lenvatinib, Lenvatinib mesilate]" target_under_test="p70S6K (Homo sapiens, UniProt P23443)" readout_name=IC50 value="> 10 µM"

* * *

TARGET UNDER TEST: KIT(D816V) (Homo sapiens, UniProt P10721, D816V)
Sequence (P10721 26-976 D816V): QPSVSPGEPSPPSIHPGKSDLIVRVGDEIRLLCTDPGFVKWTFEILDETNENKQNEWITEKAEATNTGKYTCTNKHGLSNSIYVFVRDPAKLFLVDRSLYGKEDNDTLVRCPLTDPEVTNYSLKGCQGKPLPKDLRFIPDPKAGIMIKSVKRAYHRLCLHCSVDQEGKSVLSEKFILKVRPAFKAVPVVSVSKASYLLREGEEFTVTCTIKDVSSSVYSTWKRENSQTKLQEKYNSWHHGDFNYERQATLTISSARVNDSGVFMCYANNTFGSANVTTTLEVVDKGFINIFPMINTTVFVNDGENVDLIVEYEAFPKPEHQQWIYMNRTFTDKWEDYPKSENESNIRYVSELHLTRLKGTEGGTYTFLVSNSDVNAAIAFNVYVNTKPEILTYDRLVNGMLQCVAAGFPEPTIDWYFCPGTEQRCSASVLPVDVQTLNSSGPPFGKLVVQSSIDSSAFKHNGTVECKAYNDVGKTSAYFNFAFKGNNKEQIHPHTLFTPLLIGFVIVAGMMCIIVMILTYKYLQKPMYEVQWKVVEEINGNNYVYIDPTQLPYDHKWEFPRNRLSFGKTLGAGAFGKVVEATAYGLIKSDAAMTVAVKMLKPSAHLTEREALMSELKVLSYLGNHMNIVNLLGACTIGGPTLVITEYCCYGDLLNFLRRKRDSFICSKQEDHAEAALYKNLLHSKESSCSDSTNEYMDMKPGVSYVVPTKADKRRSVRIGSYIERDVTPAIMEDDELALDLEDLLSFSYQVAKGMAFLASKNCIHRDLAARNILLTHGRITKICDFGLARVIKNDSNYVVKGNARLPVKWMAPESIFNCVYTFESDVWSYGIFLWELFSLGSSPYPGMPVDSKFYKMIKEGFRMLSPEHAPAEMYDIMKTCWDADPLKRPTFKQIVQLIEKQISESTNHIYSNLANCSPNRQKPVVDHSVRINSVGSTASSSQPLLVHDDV
PROTOCOL DESCRIPTION: Cell free kinase inhibition assay
READOUT NAME: IC50

compound="COc1cc2nccc(Oc3ccc(NC(=O)NC4CC4)c(Cl)c3)c2cc1C(N)=O [Lenvatinib, Lenvatinib mesilate]" readout_name=IC50 value="> 10 µM"

* * *

Tested on: K1 cells
PROTOCOL DESCRIPTION: Antiproliferation assay (WST-8)
Format: cell-based, human
MEASUREMENT SETUP: Homo sapiens, 72 h; K1 (DTC), antiproliferative, 3 days
Catalogue of IC50 values
READOUT NAME: IC50 (µM)

compound="COc1cc2nccc(Oc3ccc(NC(=O)NC4CC4)c(Cl)c3)c2cc1C(N)=O [Lenvatinib, Lenvatinib mesilate]" value=22
compound=CCN(CC)CCCCNc1ncc2cc(-c3cc(OC)cc(OC)c3)c(NC(=O)NC(C)(C)C)nc2n1 value=11
compound=CNC(=O)c1cc(Oc2ccc(NC(=O)Nc3ccc(Cl)c(C(F)(F)F)c3)cc2)ccn1 value=5.2

* * *

TARGET UNDER TEST: UniProtKB P04626
Sequence (P04626 23-1255): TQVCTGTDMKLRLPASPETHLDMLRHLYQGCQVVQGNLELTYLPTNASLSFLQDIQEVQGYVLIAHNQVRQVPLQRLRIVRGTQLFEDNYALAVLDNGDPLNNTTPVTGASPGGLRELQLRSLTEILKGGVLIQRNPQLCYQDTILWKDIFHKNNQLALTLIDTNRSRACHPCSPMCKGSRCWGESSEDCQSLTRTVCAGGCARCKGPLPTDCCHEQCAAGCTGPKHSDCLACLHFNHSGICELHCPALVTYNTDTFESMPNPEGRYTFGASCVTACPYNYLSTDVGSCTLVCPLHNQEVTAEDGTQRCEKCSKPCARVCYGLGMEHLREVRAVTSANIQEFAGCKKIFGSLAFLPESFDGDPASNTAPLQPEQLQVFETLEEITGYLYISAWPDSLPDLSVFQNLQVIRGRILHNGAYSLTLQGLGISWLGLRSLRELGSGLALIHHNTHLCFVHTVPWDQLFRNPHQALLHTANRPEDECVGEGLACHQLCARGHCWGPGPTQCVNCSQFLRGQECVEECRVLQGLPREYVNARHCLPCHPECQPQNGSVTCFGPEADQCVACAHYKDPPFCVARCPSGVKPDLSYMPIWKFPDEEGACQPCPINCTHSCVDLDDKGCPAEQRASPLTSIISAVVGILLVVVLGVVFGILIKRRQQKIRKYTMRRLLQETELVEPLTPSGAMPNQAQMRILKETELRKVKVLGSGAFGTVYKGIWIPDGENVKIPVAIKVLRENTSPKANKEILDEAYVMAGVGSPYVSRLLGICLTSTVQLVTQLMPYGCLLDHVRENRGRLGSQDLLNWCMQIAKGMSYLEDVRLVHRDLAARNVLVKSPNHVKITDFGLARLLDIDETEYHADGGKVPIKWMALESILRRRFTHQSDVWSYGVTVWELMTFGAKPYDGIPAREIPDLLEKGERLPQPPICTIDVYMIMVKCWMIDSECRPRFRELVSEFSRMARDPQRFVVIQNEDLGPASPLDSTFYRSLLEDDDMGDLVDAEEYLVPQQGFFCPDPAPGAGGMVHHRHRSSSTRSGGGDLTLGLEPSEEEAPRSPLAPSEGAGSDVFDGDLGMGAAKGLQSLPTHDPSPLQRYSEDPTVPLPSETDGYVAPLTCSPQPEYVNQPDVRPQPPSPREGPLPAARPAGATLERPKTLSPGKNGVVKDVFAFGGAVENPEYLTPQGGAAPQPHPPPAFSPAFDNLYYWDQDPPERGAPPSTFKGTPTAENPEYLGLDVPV
READOUT NAME: IC50

molecule="COc1cc2nccc(Oc3ccc(NC(=O)NC4CC4)c(Cl)c3)c2cc1C(N)=O [Lenvatinib, Lenvatinib mesilate]" readout_name=IC50 value="> 10 µM"

* * *

TARGET UNDER TEST: CDK2/CycE1 (Homo sapiens, UniProt P24941)
PROTOCOL DESCRIPTION: Cell free kinase inhibition assay
READOUT NAME: IC50

compound="COc1cc2nccc(Oc3ccc(NC(=O)NC4CC4)c(Cl)c3)c2cc1C(N)=O [Lenvatinib, Lenvatinib mesilate]" value="> 10 µM"

* * *

Test system: Nthy-ori 3-1 cells
PROTOCOL DESCRIPTION: Antiproliferation assay (WST-8)
Assay type: cell-based, human
MEASUREMENT SETUP: Homo sapiens, 72 h; Nthy-ori 3-1 (normal thyroid), antiproliferative, 3 days
pIC50: −log10 of the molar value.
Catalogue of pIC50 values
READOUT NAME: pIC50

molecule="COc1cc2nccc(Oc3ccc(NC(=O)NC4CC4)c(Cl)c3)c2cc1C(N)=O [Lenvatinib, Lenvatinib mesilate]" value=4.82
molecule="CCN(CC)CCCCNc1ncc2cc(-c3cc(OC)cc(OC)c3)c(NC(=O)NC(C)(C)C)nc2n1 [PD173074]" value=5.34

* * *

TARGET UNDER TEST: FGFR2 (Homo sapiens, UniProt P21802)
READOUT NAME: IC50

compound="COc1cc2nccc(Oc3ccc(NC(=O)NC4CC4)c(Cl)c3)c2cc1C(N)=O [Lenvatinib, Lenvatinib mesilate]" readout_name=IC50 value="27 nM"

* * *

TARGET UNDER TEST: CSK (Homo sapiens, UniProt P41240)
Sequence (P41240 whole entry): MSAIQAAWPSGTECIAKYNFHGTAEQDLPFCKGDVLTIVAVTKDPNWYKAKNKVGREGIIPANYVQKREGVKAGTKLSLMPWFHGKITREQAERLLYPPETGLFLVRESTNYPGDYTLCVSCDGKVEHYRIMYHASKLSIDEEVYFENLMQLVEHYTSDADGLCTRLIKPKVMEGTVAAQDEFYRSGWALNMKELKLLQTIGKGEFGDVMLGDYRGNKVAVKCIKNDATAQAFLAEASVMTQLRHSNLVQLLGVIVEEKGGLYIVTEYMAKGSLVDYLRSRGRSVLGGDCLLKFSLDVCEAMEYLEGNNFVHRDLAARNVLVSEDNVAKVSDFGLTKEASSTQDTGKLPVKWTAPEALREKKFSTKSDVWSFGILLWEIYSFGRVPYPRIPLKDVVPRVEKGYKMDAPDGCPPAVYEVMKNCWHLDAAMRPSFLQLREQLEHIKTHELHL
pIC50: −log10 of the molar value.
READOUT NAME: pIC50

molecule="COc1cc2nccc(Oc3ccc(NC(=O)NC4CC4)c(Cl)c3)c2cc1C(N)=O [Lenvatinib, Lenvatinib mesilate]" readout_name=pIC50 value=5.59

* * *

TARGET UNDER TEST: MUSK (Homo sapiens)
Sequence (O15146 24-869): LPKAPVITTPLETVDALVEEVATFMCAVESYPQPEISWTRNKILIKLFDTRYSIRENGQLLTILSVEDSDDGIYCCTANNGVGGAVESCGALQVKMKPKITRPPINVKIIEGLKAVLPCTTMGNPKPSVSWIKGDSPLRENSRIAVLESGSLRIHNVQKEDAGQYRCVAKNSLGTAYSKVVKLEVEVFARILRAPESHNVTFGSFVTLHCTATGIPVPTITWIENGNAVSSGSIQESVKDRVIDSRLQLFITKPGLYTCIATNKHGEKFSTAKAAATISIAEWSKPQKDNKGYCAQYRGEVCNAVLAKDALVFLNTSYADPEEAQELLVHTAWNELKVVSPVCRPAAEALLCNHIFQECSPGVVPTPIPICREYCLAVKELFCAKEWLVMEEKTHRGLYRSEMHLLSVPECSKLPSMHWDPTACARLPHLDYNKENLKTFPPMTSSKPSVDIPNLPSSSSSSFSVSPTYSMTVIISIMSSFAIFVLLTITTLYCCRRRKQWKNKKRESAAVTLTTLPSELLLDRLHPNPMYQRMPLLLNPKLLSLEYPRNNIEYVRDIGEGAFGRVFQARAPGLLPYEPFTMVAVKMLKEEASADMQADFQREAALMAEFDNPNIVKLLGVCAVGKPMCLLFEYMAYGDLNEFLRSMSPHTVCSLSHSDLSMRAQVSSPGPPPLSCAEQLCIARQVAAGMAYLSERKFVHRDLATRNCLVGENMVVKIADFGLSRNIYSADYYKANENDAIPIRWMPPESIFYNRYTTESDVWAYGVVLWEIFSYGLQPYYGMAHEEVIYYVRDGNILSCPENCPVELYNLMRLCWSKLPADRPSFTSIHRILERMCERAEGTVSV
READOUT NAME: IC50

compound="COc1cc2nccc(Oc3ccc(NC(=O)NC4CC4)c(Cl)c3)c2cc1C(N)=O [Lenvatinib, Lenvatinib mesilate]" value="> 10 µM"

* * *

TARGET UNDER TEST: KIT(V560G) (Homo sapiens, UniProt P10721, V560G)
Sequence (P10721 26-976 V560G): as the sequence (P10721 26-976 D816V) above, with V535G, V791D counted along it
PROTOCOL DESCRIPTION: Cell free kinase inhibition assay
READOUT NAME: IC50 (pM)

compound="COc1cc2nccc(Oc3ccc(NC(=O)NC4CC4)c(Cl)c3)c2cc1C(N)=O [Lenvatinib, Lenvatinib mesilate]" value=740

* * *

TARGET UNDER TEST: KIT(T670I) (Homo sapiens, UniProt P10721, T670I)
Sequence (P10721 26-976 T670I): as the sequence (P10721 26-976 D816V) above, with T645I, V791D counted along it
PROTOCOL DESCRIPTION: Cell free kinase inhibition assay
pIC50: −log10 of the molar value.
READOUT NAME: pIC50

compound="COc1cc2nccc(Oc3ccc(NC(=O)NC4CC4)c(Cl)c3)c2cc1C(N)=O [Lenvatinib, Lenvatinib mesilate]" value=6.39

* * *

TARGET UNDER TEST: WEE1 (Homo sapiens, UniProt P30291)
READOUT NAME: IC50

compound="COc1cc2nccc(Oc3ccc(NC(=O)NC4CC4)c(Cl)c3)c2cc1C(N)=O [Lenvatinib, Lenvatinib mesilate]" value="> 10 µM"

* * *

TARGET UNDER TEST: INSR (Homo sapiens)
READOUT NAME: IC50

compound="COc1cc2nccc(Oc3ccc(NC(=O)NC4CC4)c(Cl)c3)c2cc1C(N)=O [Lenvatinib, Lenvatinib mesilate]" readout_name=IC50 value="> 10 µM"
